target: GST-Xa-hAAK1 (Homo sapiens, UniProt Q2M2I8); construct: made in house; test: AAK1 Kinase Assay; assay type: biochemical; details: ATP 22 μM; IC50 ranges
Sequence (Q2M2I8 whole entry): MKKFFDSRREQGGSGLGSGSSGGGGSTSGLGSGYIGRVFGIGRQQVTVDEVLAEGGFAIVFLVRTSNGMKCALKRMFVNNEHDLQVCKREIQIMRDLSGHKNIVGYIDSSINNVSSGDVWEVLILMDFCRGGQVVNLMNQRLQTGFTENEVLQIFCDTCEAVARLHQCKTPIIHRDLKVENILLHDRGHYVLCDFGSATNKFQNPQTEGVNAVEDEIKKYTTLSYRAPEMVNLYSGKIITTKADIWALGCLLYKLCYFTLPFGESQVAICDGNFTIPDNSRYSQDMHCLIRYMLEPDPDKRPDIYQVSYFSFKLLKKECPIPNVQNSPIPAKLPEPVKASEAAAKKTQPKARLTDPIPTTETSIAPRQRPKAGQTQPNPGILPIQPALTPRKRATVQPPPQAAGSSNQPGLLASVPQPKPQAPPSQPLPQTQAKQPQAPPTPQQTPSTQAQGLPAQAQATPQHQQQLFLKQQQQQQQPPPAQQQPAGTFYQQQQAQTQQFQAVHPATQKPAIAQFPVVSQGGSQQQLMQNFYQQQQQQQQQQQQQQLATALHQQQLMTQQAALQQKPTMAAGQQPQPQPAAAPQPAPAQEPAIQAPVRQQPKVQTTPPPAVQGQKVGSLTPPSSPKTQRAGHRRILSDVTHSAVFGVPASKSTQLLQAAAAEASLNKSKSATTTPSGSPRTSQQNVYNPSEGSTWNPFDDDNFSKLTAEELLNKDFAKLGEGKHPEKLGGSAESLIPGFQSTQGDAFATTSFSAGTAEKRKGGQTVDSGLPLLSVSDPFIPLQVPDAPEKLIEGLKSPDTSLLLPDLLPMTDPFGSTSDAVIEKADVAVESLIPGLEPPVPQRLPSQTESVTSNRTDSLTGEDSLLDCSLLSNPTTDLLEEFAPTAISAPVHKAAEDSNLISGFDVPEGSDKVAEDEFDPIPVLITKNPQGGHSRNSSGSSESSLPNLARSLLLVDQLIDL
pIC50: −log10 of the molar value.
Reported values of pIC50 for individual entries

Sample records with pIC50:
Molecule	Attribute Measured	Result
COC(=O)Nc1cc2c(cn1)COc1c-2ccc(OC[C@@](C)(N)CC(C)C)c1OC(F)F	pIC50	> 9.00
COC(=O)Nc1cc2c(cn1)COc1c-2ccc(OC[C@@H](N)CC(C)C)c1C#N	pIC50	8.00 to 9.00
COc1c(OCC(C)(N)CC(C)C)ccc2c1OCc1cnc(NC(C)=O)cc1-2 (racemic)	pIC50	> 9.00
CC(C)CC(C)(N)COc1ccc2c(c1)OCc1cnc(N)cc1-2 (racemic)	pIC50	8.00 to 9.00
CC(=O)Nc1cc2c(cn1)COc1cc(OC[C@H](CC(C)C)NC(C)=O)ccc1-2	pIC50	5.92 to 7.00
Cc1cc2c(cn1)c(=O)oc1cc(OC[C@@](C)(N)CC(C)C)c(Cl)cc12	pIC50	5.92 to 7.00
CCC(=O)Nc1cc2c(cn1)COc1cc(OC[C@@H](N)CC(C)C)ccc1-2	pIC50	8.00 to 9.00
COC(=O)Nc1cc2c(cn1)COc1c-2ccc(OC[C@@](C)(N)CC(C)C)c1Cl	pIC50	8.00 to 9.00
CC(C)C[C@H](N)COc1ccc2c(c1)OC1(COC1)c1cnccc1-2	pIC50	5.92 to 7.00
CC(=O)Nc1cc2c(cn1)COc1cc(OC[C@@](C)(N)CC(C)C)cc(F)c1-2	pIC50	8.00 to 9.00

// pIC50 lookup, molecule = CC(=O)Nc1cc2c(cn1)COc1cc(OC[C@](C)(N)CC(C)C)ccc1-2 , result: 8.00 to 9.00

Query COC(=O)Nc1cc2c(cn1)COc1cc(OCC(C)(N)CC(C)C)ccc1-2 (racemic) [Example 60] yields pIC50 of 8.00 to 9.00

----------
pIC50 values, listed per item
target: GST-Xa-hAAK1 (Homo sapiens, UniProt Q2M2I8); construct: made in house; assay: AAK1 Kinase Assay; type: biochemical; settings: ATP 22 μM; IC50 ranges
pIC50: −log10 of the molar value.

Please review the following examples before continuing.
Compound	Study Target	pIC50
COC(=O)Nc1cc2c(cn1)COc1cc(OCC(C)(N)CC(C)C)ccc1-2 (stereo not shown) [Example 67]	GST-Xa-hAAK1 (Homo sapiens, UniProt Q2M2I8)	8.00 to 9.00
CC(=O)Nc1cc2c(cn1)COc1c-2ccc(OC[C@@](C)(N)CC(C)C)c1Cl	GST-Xa-hAAK1 (Homo sapiens, UniProt Q2M2I8)	> 9.00
CC(C)C[C@](C)(N)COc1cc(F)c2c(c1)OCc1cnc(N)cc1-2	GST-Xa-hAAK1 (Homo sapiens, UniProt Q2M2I8)	8.00 to 9.00

# context switch: different compound, same pIC50
Case CC(=O)Nc1nccc2c1C(C)Oc1cc(OC[C@@H](N)CC(C)C)ccc1-2 (stereo partly shown) , GST-Xa-hAAK1 (Homo sapiens, UniProt Q2M2I8), pIC50 recorded as 5.92 to 7.00

----------
target: AAK1 (full length human) in HEK293F cells (Homo sapiens); experiment: HEK293F Cell-Based Assay (phospho-mu2 Western blot); details: 3 hours, IC50 ranges
Attribute Measured: IC50

Take a look at these entries with their results.
Molecule	Study Target	IC50
CC(=O)Nc1cc2c(cn1)COc1cc(OC[C@](C)(N)CC(C)C)ccc1-2 [Example 46]	AAK1 (full length human) in HEK293F cells (Homo sapiens)	1 to 10 nM
COC(=O)Nc1cc2c(cn1)COc1cc(OCC(C)(N)CC(C)C)ccc1-2 (racemic) [Example 60]	AAK1 (full length human) in HEK293F cells (Homo sapiens)	1 to 10 nM

The molecule CC(C)C[C@H](N)COc1ccc2c(c1)OC(C(F)(F)F)c1cnccc1-2 (single isomer, unassigned; diastereomer 1) [Example 52] , tested on AAK1 (full length human) in HEK293F cells (Homo sapiens), showed IC50 of 10 to 100 nM

Assay AAK1 (full length human) in HEK293F cells (Homo sapiens), sample CC(=O)Nc1cc2c(cn1)COc1c-2ccc(OC[C@@H](N)CC(C)C)c1OC(F)F [Example 59] , IC50 read: < 1 nM

----------
target: GST-Xa-hAAK1 (Homo sapiens); construct: made in house; test: AAK1 Kinase Assay; format: biochemical; details: ATP 22 μM; IC50 ranges
Attribute Measured: IC50

Kindly note the recorded IC50 for CC(C)C[C@H](N)COc1cc2c(cc1Cl)-c1cc(N)ncc1CO2 [Example 71] , which is 1 to 10 nM

The value of IC50 measured for the molecule COC(=O)Nc1ncc2c(c1Cl)-c1cc(Cl)c(OC[C@@](C)(N)CC(C)C)cc1OC2 [Example 82] turned out to be 1 to 10 nM

// recorded IC50 for CC(C)C[C@H](N)COc1ccc2c(c1)OCc1cnc(NC(=O)C(C)C)cc1-2 [Example 61] : 10 to 100 nM

For CC(C)C[C@@H](N)COc1ccc2c(c1)OC(C1CC1)c1cnccc1-2 (single isomer, unassigned) [Example 9a] the molecule record lists IC50 as 100 to 1200 nM

----------
target: GST-Xa-hAAK1 (Homo sapiens); construct: made in house; test: AAK1 Kinase Assay; type: biochemical; settings: ATP 22 μM; IC50 ranges
The entries below come with measured IC50 values attached.

Consider the worked cases shown below.
Compound	IC50
Cc1cc2c(cn1)COc1cc(OC[C@@H](N)CC(C)C)ccc1-2	100 to 1200 nM
CC(C)C[C@@H](N)COc1ccc2c(c1)OC(C1CC1)c1cnccc1-2 (single isomer, unassigned) [Example 9b]	100 to 1200 nM

Data point: COC(=O)Nc1cc2c(cn1)COc1cc(OC[C@@](C)(N)CC(C)C)c(Cl)cc1-2 ; IC50 = 1 to 10 nM

CC(C)C[C@H](N)COc1cc2c(cc1Cl)-c1ccncc1[C@H](C(F)(F)F)O2 (single isomer, unassigned) [Example 27a] has a reported IC50 of 1 to 10 nM

Field IC50 (entry CC(C)C[C@H](N)COc1ccc2c(c1)OC(C(F)(F)F)c1cnccc1-2 (some centres unmarked) [Example 49] ) reads 10 to 100 nM

Data provenance is patent US20160222021A1.
